This section presents compounds with their documented Selectivity Index (SI) (COX-1 IC50/COX-2 IC50) values.
Target: COX-2 (Homo sapiens)
Construct: purchased Cayman Chemical 701180
Assay: COX-2 inhibition assay (COX-2 ELISA kit)
Format: biochemical
Settings: in vitro COX-2 selectivity index
Experimental: 3-(4,5-Dimethylthiazol-2-yl)-2,5-diphenyltetrazolium (MTT) were purchased from Beyotime Institute of Biotechnology (Haimen, China). Annexcin V-FITC cell apoptosis assay kit (catalog No.BA11100) was purchased from BIO-BOX (Nanjing, China). Fibronectin (#F1056) and laminin (#L2020) were purchased from Sigma-Aldrich (St. Louis, MO, USA). Then 1 M HCl was added to the reaction mixture to stop the reaction, and one-tenth of the volume of saturated stannous chloride (50 mg/mL) was added. […]

COc1ccc(C2=NN(c3ccc(S(N)(=O)=O)cc3)C(c3ccc4c(c3)OCCO4)C2)cc1 (stereo not shown) | >39.47
NS(=O)(=O)c1ccc(N2N=C(c3ccccc3F)CC2c2ccc3c(c2)OCCO3)cc1 (stereo not shown) | >27.40
NS(=O)(=O)c1ccc(N2N=C(c3cccc(F)c3)CC2c2ccc3c(c2)OCCO3)cc1 (stereo not shown) | >31.09
COc1cccc(C2=NN(c3ccc(S(N)(=O)=O)cc3)C(c3ccc4c(c3)OCO4)C2)c1 (stereo not shown) | >18.87
NS(=O)(=O)c1ccc(N2N=C(c3ccccc3)CC2c2ccc3c(c2)OCCO3)cc1 (stereo not shown) | >32.97

Exam item: Lab request: please report Selectivity Index (SI) (COX-1 IC50/COX-2 IC50) under test system COX-2 (Homo sapiens) for NS(=O)(=O)c1ccc(N2N=C(c3ccccc3F)CC2c2ccc3c(c2)OCO3)cc1 (stereo not shown)
Marked response: >33.15

Exam item: For the record NS(=O)(=O)c1ccc(N2N=C(c3ccc(I)cc3)CC2c2ccc3c(c2)OCO3)cc1 (stereo not shown) , what value of Selectivity Index (SI) (COX-1 IC50/COX-2 IC50) is listed for COX-2 (Homo sapiens)?
Marked response: 21.53

Exam item: Give recorded Selectivity Index (SI) (COX-1 IC50/COX-2 IC50) with COX-2 (Homo sapiens) for the following compound: NS(=O)(=O)c1ccc(N2N=C(c3cc(F)cc(F)c3)CC2c2ccc3c(c2)OCCO3)cc1 (stereo not shown)
Marked response: 36.44

---

Target: COX-2 (Homo sapiens, UniProt P35354)
Construct: purchased Cayman Chemical 701180
Sequence (P35354 18-604): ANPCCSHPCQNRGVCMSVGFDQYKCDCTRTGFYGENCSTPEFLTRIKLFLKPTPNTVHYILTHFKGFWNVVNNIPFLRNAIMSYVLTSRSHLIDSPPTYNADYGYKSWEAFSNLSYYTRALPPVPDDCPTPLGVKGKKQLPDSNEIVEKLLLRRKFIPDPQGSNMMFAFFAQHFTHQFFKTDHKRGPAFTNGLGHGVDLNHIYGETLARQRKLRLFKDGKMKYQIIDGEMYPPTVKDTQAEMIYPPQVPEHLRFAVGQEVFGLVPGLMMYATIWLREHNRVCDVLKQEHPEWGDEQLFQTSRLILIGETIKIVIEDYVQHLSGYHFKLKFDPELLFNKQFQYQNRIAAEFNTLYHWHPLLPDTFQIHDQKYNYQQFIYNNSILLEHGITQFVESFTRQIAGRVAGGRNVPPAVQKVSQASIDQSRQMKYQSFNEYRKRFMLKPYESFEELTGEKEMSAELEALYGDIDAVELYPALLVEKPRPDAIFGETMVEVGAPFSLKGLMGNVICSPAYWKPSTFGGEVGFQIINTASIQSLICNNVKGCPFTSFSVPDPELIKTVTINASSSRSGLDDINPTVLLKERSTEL
Assay: COX-2 inhibition assay (COX-2 ELISA kit)
Assay type: biochemical
Conditions: in vitro COX-2 selectivity index
Known Selectivity Index (SI) (COX-1 IC50/COX-2 IC50) of a selection of compounds

Some entries whose results are on file:
Cc1ccc(C2=NN(c3ccc(S(N)(=O)=O)cc3)C(c3ccc4c(c3)OCO4)C2)c(C)c1 (centres unmarked) | >30.30
COc1cccc(C2=NN(c3ccc(S(N)(=O)=O)cc3)C(c3ccc4c(c3)OCCO4)C2)c1 (centres unmarked) | >22.73
NS(=O)(=O)c1ccc(N2N=C(c3cccc(F)c3)CC2c2ccc3c(c2)OCO3)cc1 (centres unmarked) | 41.33
Cc1cccc(C2=NN(c3ccc(S(N)(=O)=O)cc3)C(c3ccc4c(c3)OCO4)C2)c1 (centres unmarked) | 19.20
NS(=O)(=O)c1ccc(N2N=C(c3ccc(F)cc3F)CC2c2ccc3c(c2)OCCO3)cc1 (centres unmarked) | >33.52

Exam item: Request: Selectivity Index (SI) (COX-1 IC50/COX-2 IC50), test system COX-2 (Homo sapiens, UniProt P35354), entry CCOc1ccc(C2=NN(c3ccc(S(N)(=O)=O)cc3)C(c3ccc4c(c3)OCCO4)C2)cc1 (centres unmarked)
Marked response: >24.59

Exam item: Request body: readout Selectivity Index (SI) (COX-1 IC50/COX-2 IC50), system COX-2 (Homo sapiens, UniProt P35354), query NS(=O)(=O)c1ccc(N2N=C(c3ccccc3)CC2c2ccc3c(c2)OCO3)cc1 (centres unmarked) . Return the value.
Marked response: >44.44

Exam item: Record Cc1ccc(C2=NN(c3ccc(S(N)(=O)=O)cc3)C(c3ccc4c(c3)OCO4)C2)cc1C (centres unmarked) : what is its Selectivity Index (SI) (COX-1 IC50/COX-2 IC50) with COX-2 (Homo sapiens, UniProt P35354)?
Marked response: 33.61
